# assay info: Inhibition of Akt Ser473 phosphorylation in human MDA-MB-468 cells after 2 hrs
# Format: cell-based
# condition notes: MDA-MB-468, 2 h
measurement label: IC50 (µM)
API: value field is a number in µM; no unit string.

item smiles: CS(=O)(=O)Cc1cc(N2CCOCC2)nc(-c2ccc3[nH]cnc3c2)n1
IC50 (µM): 7.2
--
item smiles: C[C@H]1COCCN1c1cc(CS(C)(=O)=O)nc(-c2ccc3[nH]ccc3c2)n1
IC50 (µM): 1.88
--
item smiles: CS(=O)(=O)Cc1cc(N2CCOCC2)nc(NC(=O)c2ccno2)n1
IC50 (µM): 5.1
--
item smiles: C[C@@H]1COCCN1c1cc(CS(C)(=O)=O)nc(-c2ccc3[nH]ccc3c2)n1
IC50 (µM): 3.1

Then there is this molecule:
**Q:** What value of IC50 has been reported for the following molecule? "CS(=O)(=O)Cc1cc(N2CC3CCC(C2)O3)nc(-c2ccc3[nH]ccc3c2)n1"
**A:** 1.9
